# assayed target: D(2) dopamine receptor (Homo sapiens) (UniProt P14416)
# Sequence (P14416 whole entry): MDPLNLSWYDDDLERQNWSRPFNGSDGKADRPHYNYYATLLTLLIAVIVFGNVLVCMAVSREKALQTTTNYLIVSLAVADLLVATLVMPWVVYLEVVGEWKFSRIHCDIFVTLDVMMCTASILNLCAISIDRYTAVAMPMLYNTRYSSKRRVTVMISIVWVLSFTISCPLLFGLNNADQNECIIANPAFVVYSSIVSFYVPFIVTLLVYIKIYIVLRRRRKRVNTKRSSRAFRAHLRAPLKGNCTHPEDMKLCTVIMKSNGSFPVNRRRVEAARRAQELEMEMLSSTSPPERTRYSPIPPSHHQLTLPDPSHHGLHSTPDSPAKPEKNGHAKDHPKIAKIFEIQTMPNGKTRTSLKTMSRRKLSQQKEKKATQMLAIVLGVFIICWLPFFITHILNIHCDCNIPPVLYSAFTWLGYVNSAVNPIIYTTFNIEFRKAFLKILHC
# assay remarks: Negative allosteric modulation of recombinant human D2L receptor expressed in Flp-In CHO cells assessed as inhibition of dopamine-induced reduction in forskolin stimulated cAMP accumulation preincubated for 30 mins followed by forskolin stimulation and measured after 30 mins by BRET assay
# Format: functional, cell-based
Please provide measured Kb for the entries that follow.
# number only, unit µM dropped from output

Find Kb (D(2) dopamine receptor (Homo sapiens) (UniProt P14416)) for the entry `FC(F)(F)c1cccc(Nc2nc(CCCN3CCOCC3)nc3sc4c(c23)CCCC4)c1`
1.63

Request - read-out Kb | tested on D(2) dopamine receptor (Homo sapiens) (UniProt P14416) | compound `FC(F)(F)c1cccc(Nc2nc(CN3CCOCC3)nc3sc(C4CCCCC4)cc23)c1`
5.37

State its Kb on D(2) dopamine receptor (Homo sapiens) (UniProt P14416): `Fc1cccc(Nc2nc(CN3CCOCC3)nc3sc4c(c23)CCCC4)c1`
8.39

For the record `FC(F)(F)c1cccc(Nc2ncnc3sccc23)c1` , what value of Kb is listed for D(2) dopamine receptor (Homo sapiens) (UniProt P14416)?
0.8

* * *

# assayed target: UniProt:P14416
# assay remarks: Negative allosteric modulation of recombinant human D2L receptor expressed in Flp-In CHO cells assessed as inhibition of dopamine-induced reduction in forskolin stimulated cAMP accumulation by measuring modulation of dopamine efficacy preincubated for 30 mins followed by forskolin stimulation and measured after 30 mins by BRET assay
# Assay type: functional, cell-based
outcome measure: Activity
When you answer, write just the number.

Identify the measured Activity of `FC(F)(F)c1cccc(Nc2ncnc3sc4c(c23)CCCC4)c1` for UniProt:P14416.
0.1

Which measured Activity belongs to `FC(F)(F)c1cccc(Nc2nc(CCCN3CCOCC3)nc3sc4c(c23)CCCC4)c1` , tested on UniProt:P14416?
0.4

Return Activity measured with UniProt:P14416 given this compound: `CCN(CC)c1nc(CN2CCOCC2)nc2sccc12`
0.24

Given the entry `FC(F)(F)c1cccc(Nc2nc(CCCCN3CCOCC3)nc3sc4c(c23)CCCC4)c1` , what Activity was observed with UniProt:P14416?
0.03

Look up Activity with UniProt:P14416 for this compound: `FC(F)(F)c1cccc(Nc2nc(CCCCN3CCOCC3)nc3sccc23)c1`
0.06

What value of Activity on UniProt:P14416 does `CCN(CC)c1nc(CN2CCOCC2)nc2sc3c(c12)CCCC3` have?
0.08

* * *

# assayed target: D(2) dopamine receptor (Homo sapiens) (UniProt P14416)
# assay remarks: Displacement of [3H]Raclopride from recombinant human D2L receptor expressed in Flp-In CHO cell membranes after 2 to 3 hrs by microbeta counting method
Kindly supply the reported Kb values for the records listed here.
In your response, put the unit directly after the numeric value.

Need Kb, item `FC(F)(F)c1cccc(Nc2nc(CN3CCCCC3)nc3sc4c(c23)CCCC4)c1`
39 µM

Kb lookup needed for `FC(F)(F)c1cccc(Nc2nc(CCCN3CCOCC3)nc3sc4c(c23)CCCC4)c1` , thanks.
13 µM

Value lookup for Kb; key = `FC(F)(F)c1cccc(Oc2nc(CN3CCOCC3)nc3sc4c(c23)CCCC4)c1`
22 µM
